Origin of measurements: paper PMC10467532

System: FHC
assay comment: MTT cytotoxicity assay, normal FHC cells
recorded conditions: Homo sapiens, 48 h, read-out: IC50 FHC
experimental endpoint: IC50

## Task Which IC50 is reported for this compound? COc1cc2nccc(Oc3ccc(NC(=O)c4nc(-c5ccccc5)ns4)cc3)c2cc1OC [Compound 51a]
## Result > 100 µM

## Task Record request: IC50 value, item COc1ccc(-c2csc(C(=O)Nc3ccc(Oc4ccnc(Cl)c4)c(F)c3)n2)cc1OC [Compound 51z]
## Result > 100 µM

## Task Please look up its IC50: COc1cc2nccc(Oc3ccc(NC(=O)c4nc(-c5ccc(F)cc5)ns4)cc3)c2cc1OC [Compound 51b]
## Result > 100 µM

* * *

# pIC50 measurements, system: c-Met (Homo sapiens, UniProt P08581)
# Sequence (P08581 25-1390): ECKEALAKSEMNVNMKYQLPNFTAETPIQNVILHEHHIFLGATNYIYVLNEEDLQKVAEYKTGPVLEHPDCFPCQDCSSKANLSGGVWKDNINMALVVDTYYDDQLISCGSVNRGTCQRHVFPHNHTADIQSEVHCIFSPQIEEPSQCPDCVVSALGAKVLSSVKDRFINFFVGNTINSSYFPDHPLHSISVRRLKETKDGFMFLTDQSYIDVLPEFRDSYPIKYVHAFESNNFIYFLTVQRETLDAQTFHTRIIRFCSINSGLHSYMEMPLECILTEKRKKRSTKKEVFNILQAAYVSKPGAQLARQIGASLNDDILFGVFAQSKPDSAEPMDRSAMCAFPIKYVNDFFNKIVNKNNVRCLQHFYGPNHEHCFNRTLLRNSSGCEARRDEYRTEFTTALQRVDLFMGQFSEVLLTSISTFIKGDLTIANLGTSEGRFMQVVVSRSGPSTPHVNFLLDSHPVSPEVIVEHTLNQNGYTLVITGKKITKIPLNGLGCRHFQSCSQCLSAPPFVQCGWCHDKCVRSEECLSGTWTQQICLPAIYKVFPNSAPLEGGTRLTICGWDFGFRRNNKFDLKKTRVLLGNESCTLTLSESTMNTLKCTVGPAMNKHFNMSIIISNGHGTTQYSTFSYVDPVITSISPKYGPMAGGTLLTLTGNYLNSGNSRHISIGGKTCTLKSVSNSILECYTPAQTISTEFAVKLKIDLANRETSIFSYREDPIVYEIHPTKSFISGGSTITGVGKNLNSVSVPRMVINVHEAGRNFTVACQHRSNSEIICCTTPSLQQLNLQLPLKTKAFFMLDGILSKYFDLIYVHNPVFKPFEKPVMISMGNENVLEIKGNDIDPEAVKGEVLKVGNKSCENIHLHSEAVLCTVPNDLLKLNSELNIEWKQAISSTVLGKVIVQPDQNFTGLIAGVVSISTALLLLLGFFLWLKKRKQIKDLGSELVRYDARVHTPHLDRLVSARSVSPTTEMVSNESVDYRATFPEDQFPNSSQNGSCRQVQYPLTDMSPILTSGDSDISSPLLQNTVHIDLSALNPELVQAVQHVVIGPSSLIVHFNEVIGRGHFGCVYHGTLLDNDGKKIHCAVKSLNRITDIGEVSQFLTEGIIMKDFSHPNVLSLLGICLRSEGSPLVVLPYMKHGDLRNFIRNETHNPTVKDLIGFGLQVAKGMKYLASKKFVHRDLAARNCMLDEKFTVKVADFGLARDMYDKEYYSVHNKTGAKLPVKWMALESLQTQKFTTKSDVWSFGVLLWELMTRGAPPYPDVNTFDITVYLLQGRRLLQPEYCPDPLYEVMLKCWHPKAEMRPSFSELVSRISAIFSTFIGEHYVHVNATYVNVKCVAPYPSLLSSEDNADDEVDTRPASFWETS
Remember, pIC50 is on a log scale: it is -log10 of the molar concentration.

## Task # input compound: COc1cc2nccc(Oc3ccc(NC(=O)c4ncc(-c5ccccc5)s4)cc3)c2cc1OC [Compound 51g] ; wanted: its pIC50
## Result 7.40

## Task Give the measured pIC50 of O=C(Nc1ccc(Oc2ncnc3sccc23)c(F)c1)c1nc(-c2ccccc2)cs1 [Compound 51u] .
## Result 7.39

## Task Recorded pIC50 for O=C(Nc1ccc(Oc2ccnc(Cl)c2)c(F)c1)c1nc(-c2ccc(C(F)(F)F)cc2)cs1 [Compound 51ag] , please?
## Result 7.40
